# Tested on: MS2 coat protein
# measurement notes: apparent KD of MS2 coat protein, switch ON state; designed switch direction (-1 OFF switch, 1 ON switch): -1; higher = weaker reporter binding
# condition context: FMN input: 0 or 200 uM; Eterna round: R93 (includes R88 designs)
Respond with satisfied for apparent KD of MS2 coat protein values of 40 nM and above, not satisfied for values below.

Worked set:
- residue string: "GGAGGGCAAGGAUAUACAUGAGGAUCACCCAUGUGAGAGAAAAAAGUGAGAAAGAAAAGUAGAAGGUGCUUUCG [salish99-ex3-130]"
  qualitative label: "not satisfied"
- residue string: "CUUAUGUAAGGAUAUCAGUAGUAAAAAAAUAAAAUUACUACUGAGAAGGUACAUGAGGAUCACCCAUGUCCGGG [EX4 375: Super Stable 75]"
  qualitative label: "satisfied"
- residue string: "AAUAAACAUGAGGAUCACCCAUGUCAGGAUAUGCAUCUAACAUAAUAACAUAAAUACAGCAGAAGGGACUAAUA [JR_Exc001_Sub601]"
  qualitative label: "not satisfied"
- residue string: "AAAAAGUUAGGAUAUACAGAUAAAAAAACGAAAAAAAAUCUGUAGAAGGAACAUGAGGAUCACCCAUGUAAAAA [Ex 4 May 2]"
  qualitative label: "not satisfied"

Q) Would you say AAGAAACAUGAGGAUCACCCAUGUGAGGAUAUGUAAAAGAAAAGAAAAGAAAGAAGAAACAGAAGGCACAAAGG [Neferkare VII] shows apparent KD of MS2 coat protein at minimum 40 nM?
A) satisfied

---

# Tested on: MS2 coat protein
# measurement notes: apparent KD of MS2 coat protein; higher = weaker reporter binding
# condition context: Eterna round: R107; input ligand: theophylline 2 mM
For each of the sequences below, state its apparent KD of MS2 coat protein.
Give bare numbers, in nM.

Worked examples follow.
- residue string: "CAACUGCUUGAGCUUACUUAUUGGACUUCCCGAGGACCGGUACGGCCGCCACUCGCAGGGACACAUGAGGAUCACCCAUGUAAAG [theeternabot_exclusion_MS2_Trp_A_42]"
  unit name: "nM"
  apparent KD of MS2 coat protein: 19.6
- residue string: "AGAUUCGACACGGCCGCCACUUGUGGUGGAUUAUCCUAUGUCGAACAUGAGGAUCACCCAUGUACAAGGACCGGGUGUUGAGUCU [XTryp B #21]"
  unit name: "nM"
  apparent KD of MS2 coat protein: 447
- residue string: "GGACUAACCAGAAGGAGCGGCGCGCAGAAACUGCUAAUUCCUCCGCACGAGGAUCACCCGUGUCAGGUAGGUCGCUGGUUAGUCG [ArgBX 28]"
  unit name: "nM"
  apparent KD of MS2 coat protein: 13.4

For the 2 sequences below, give their apparent KD of MS2 coat protein values.
1. GGGUACAUCGCGGCCGCCACUCAUGUAAAUACAUGAGGAUCACCCAUGUCGAUGGAGACAUCGGAGAGGACCGGGCGAUGUACCG
2. UUCAGCUAGUCGGCCGCCACUACAUGAGGAUCACCCAUGUAAUCCUAACACUGCUUCGGCAGUGGUAGGACCGGGACUAGCUGAG

A)
1. 540
2. 12.2

For the 2 sequences below, give their apparent KD of MS2 coat protein values.
1. GUGGAGACCUCGGCCGCCACUCUCCAUGAGGAUCUCCCAUGUAACAUGAGGAUCACCCAUGUGCUGAGGACCGGGAGGUCCUGAA [Same State Tryptophan B GF 19]
2. GGUUGGUGUGGAGACAUAUUGAUCACUGAAGGAGCGGGAAUAAACCCAGGUAGGUCGCAGAGAUCCACAUGAGGAUCACCCAUGU [!0.Q]

A)
1. 11
2. 86.6

---

# Test system: MS2 coat protein
# measurement notes: apparent KD of MS2 coat protein; designed switch direction (-1 OFF switch, 1 ON switch): -1; higher = weaker reporter binding
# condition context: input ligand: none
Respond with YES for apparent KD of MS2 coat protein values of 30 nM and above, NO for values below.

Q) Would you say UAACAAGCUUAAAGAUCCCACAUGAGGAUCACCCAUGUGCUCGUCUUAUAACGUACUGUGACGAAAGUCACGGUACG [JL TOV1 3.13] (Eterna round: R97, puzzle: Sensor, turn-off variant 1) shows apparent KD of MS2 coat protein at minimum 30 nM?
A) NO

Q) Would you say CAUGAUUGGCGAGGAUAUUGACCUAGUUAGCGACGAGAAGGCGCCUGUCACAUGAGGAUCACCCAUGUGAAUCUGGUGAAAGAG [Ex NG1 #92] (Eterna round: R96, puzzle: Exclusion NG 1) shows apparent KD of MS2 coat protein at minimum 30 nM?
A) NO

Q) Would you say UACGAACUAGGAUAUGCAAUGGGCUCGCUUUCCUUCGAUAAACUUGAGGAUCACCCAAGUAGAAGGAGUUUGUA [Mod 38 - Jieux - Exclusion 2] (Eterna round: R97, puzzle: Exclusion 2) shows apparent KD of MS2 coat protein at minimum 30 nM?
A) NO

Q) Would you say AUGAUGUUAGGAUAUCAUUGCCGGGUUUGAAAACACGGGAUUGAGAAGGAACAUGAGGAUCACCCAUGUGCCUC [EX4 C.9] (Eterna round: R97, puzzle: Exclusion 4) shows apparent KD of MS2 coat protein at minimum 30 nM?
A) NO

Q) Would you say UAGCAGAGAGGAUAUACAUUCAUCACCCGCGCAACAAGCGCACAUGAGGAUCACCCAUGUAGAAGGCUCGUGCC [EX2 C.20] (Eterna round: R97, puzzle: Exclusion 2) shows apparent KD of MS2 coat protein at minimum 30 nM?
A) YES

Q) Would you say ACAUGUCAUCGAGGAUAUUGGACACAUGAGGAUCACCCAUGUACCCGGAGGCUCUACUAUGAGUUCGAGAAGGCGAUGUACAUG [Ex NG2 #74] (Eterna round: R96, puzzle: Exclusion NG 2) shows apparent KD of MS2 coat protein at minimum 30 nM?
A) NO

Q) Would you say CCUCCCUGAGGAUAUCCACCCUCAUACAUGAGGAUCACCCAUGUUCAACCCUGGGUUCCCGGAGAAGGCAGUUUCC [Megrez-2.4] (Eterna round: R97, puzzle: Exclusion 5) shows apparent KD of MS2 coat protein at minimum 30 nM?
A) YES

Q) Would you say AGCUGUGGCCGAGGAUAUACAUGAGGAUCACCCAUGUUACAUAAUUAGGCCUGGUAACAGGCUCCGUAGAAGGCGGUCUCAGCA [Eli eng2 - 005] (Eterna round: R96, puzzle: Exclusion NG 2) shows apparent KD of MS2 coat protein at minimum 30 nM?
A) NO

---

For each of the sequences below, state its apparent KD of K4 kissing-loop reporter.
# System: K4 kissing-loop RNA reporter;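 further: bound reporter read as fluorescence of individual clusters on recovered sequencing chips by microscopy, with normalized cluster intensities fitted with a binding model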
# measurement notes: apparent KD of K4 kissing-loop reporter; higher = weaker reporter binding
# condition context: Eterna round: R107; input ligand: arginine 13.2 mM
Answers are plain numbers, in nM.

For the 7 sequences below, give their apparent KD of K4 kissing-loop reporter values.
1. UGACUGGAUGGAAGGAGCGCUAAACUCCUAGUGAUGUUAGGGAUACGAGACAAAGUCUUGAGGCAGGUAGGUCGCCAUCUAGUCU [FiskerMod 11 - Jieux - Same State - Arginine B]
2. UGACUGGAUUGAAGGAGCGCUAAACUCCUAGUGAUGUUAGGGACACAAGACAAAGUCUUGAGGCAGGUAGGUCGCAAUCUAGUCU [FiskerMod 5 - Jieux - Same State - Arginine B]
3. AAGUAAUUAAUAAUUUAUAUAAGUUAAACAGAGGAUAUGCAUUAUUGCAGAAGGCUGAAUGCAGUGAUGUUGCAAUGAUUAUUUA [JR_SSFMNA_Sub001]
4. UGUGUUGUUUUGAUGUUUGUUGUAAGGUGGCAGGAUAUCGUAGAGGCGAGAAGGGCUUUUUUGCGUUAUGAGUGAUGUUUGUAGG [exeerzmullin]
5. CGUGAGGACCAGAGGUGAUGUAUAGUAUCGCGAGGACCGGUACGGCCGCCACUCGUGAAGAGAAAGGAGUGAUGUUCCGUAAUGG [Kazoo C10]
6. AAACAUCACUGGGAGUGAUGUUCUCAGUGACGAGGACCGGUACGGCCGCCACUCGCGAGAGAACUAGUCUAGUCUUGACUGCAUU [Excl Tryptophan A V14]
7. AGUCUCAAAAGAGGCAGCACUCACGAGGACAAGGAUAUCAUCUCAAUGAGAAGGUGUCCUCGUCCCUAGUGAUGUUAGGGAGUGC [Omei KL FMN A SS E v6]

A)
[130, 253, 84.7, 379, 292, 333, 265]

---

# System: MS2 coat protein
# measurement notes: apparent KD of MS2 coat protein; designed switch direction (-1 OFF switch, 1 ON switch): 1; higher = weaker reporter binding
# condition context: Eterna round: R95; input ligand: none
property name: apparent KD of MS2 coat protein (nM)
Numbers only, in nM.

- residue string: "UACAAUCUAUCUGAGGAUAUCAUGAAAUAAACAUGAGGAUCACCCAUGUGCAGGAAAACUGCAUAUGAGAAGGCAGAUAGAUUGU [salish99_ss2_r3_059] (puzzle: Same State 2)"
  measured result: 1640

For the 3 sequences below, give their apparent KD of MS2 coat protein values.
1. UUAAAACAUGAGGAUCACCCAUGUCAACAAAGUCGAGGAUAUGGGCAAAUAAAAUAAGAACCAGAAGGCGAAUAAA [salish99_SS1_r3_002] (puzzle: Same State 1)
2. CGUCCGGCCUGUGCUGGCCGGAAGCUUGUACAUGAGGAUCACCCAUGUUCAUGUGCAGGCUUUUUGCUCGUCUUGUG [salish99_mir208a_009] (puzzle: Sensor for hsa-mir-208a)
3. AGAAAACAUGAGGAUCACCCAUGUAUAGUGAAUACAGGAUAUCACCGGCUGAAAAGCCGGUGAGAAGGGUGAUCGC [Atorenri] (puzzle: Same State 1)

A)
1: 412; 2: 32.2; 3: 7.7
